# assayed.target: CCK2 receptor (Homo sapiens)
# Construct: analyzed for ZFP expression as well as CCK2R induction upon addition of doxycycline to the culture medium; endogenous in cells
# Sequence (P32239 whole entry): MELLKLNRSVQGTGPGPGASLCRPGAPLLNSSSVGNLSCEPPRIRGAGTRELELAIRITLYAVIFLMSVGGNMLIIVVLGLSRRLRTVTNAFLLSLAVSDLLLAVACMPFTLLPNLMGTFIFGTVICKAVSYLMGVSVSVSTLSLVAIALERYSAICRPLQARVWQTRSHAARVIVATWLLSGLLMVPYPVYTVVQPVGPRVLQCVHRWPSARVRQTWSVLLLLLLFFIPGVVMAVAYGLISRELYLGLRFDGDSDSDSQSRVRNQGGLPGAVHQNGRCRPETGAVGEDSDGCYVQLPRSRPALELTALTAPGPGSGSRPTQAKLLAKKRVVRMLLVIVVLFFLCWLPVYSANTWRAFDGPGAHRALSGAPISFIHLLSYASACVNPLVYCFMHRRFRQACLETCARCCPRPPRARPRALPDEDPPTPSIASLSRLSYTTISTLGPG
# test.summary: CCK2 binding assay ([125I]-BH-CCK-8S displacement, HEKZFP membranes)
# condition.context: membranes of doxycycline-induced HEKZFP cells; 20 pM [125I]-BH-CCK-8S; 60 min at 21±3° C.
assay.readout: CCK2 pKi

[[record]]
molecule = "O=C(N[C@@H](Cc1ccc(F)c(Br)c1)C(=O)O)c1ccc(Cl)cc1NS(=O)(=O)c1cccc2nsnc12 [Example 156]"
reported_value = 8.0

[[record]]
molecule = "O=C(N[C@@H](Cc1ccc(F)c(Br)c1)C(=O)O)c1ccc(Br)cc1NS(=O)(=O)c1cccc2nccnc12 [Example 158]"
reported_value = 8.3

[[record]]
molecule = "O=C(N[C@@H](Cc1ccc(F)c(Br)c1)C(=O)O)c1cc(Cl)c(Cl)cc1NS(=O)(=O)c1cccc2nsnc12 [Example 157]"
reported_value = 8.0

[[record]]
molecule = "O=C(N[C@@H](Cc1ccc(F)c(Br)c1)C(=O)O)c1ccc(Br)cc1NS(=O)(=O)c1cccc2nsnc12 [Example 162]"
reported_value = 8.2

[[record]]
molecule = "COC(=O)[C@H](Cc1ccc(F)c(Br)c1)NC(=O)c1cc(Cl)c(Cl)cc1NS(=O)(=O)c1cccc2nccnc12 [Example 153]"
reported_value = 6.6

[[record]]
molecule = "C[C@H](c1ccc(Cl)c(Cl)c1)[C@H](NC(=O)c1ccc(Cl)cc1NS(=O)(=O)c1cccc2nsnc12)C(=O)O [Example 56]"
reported_value = 6.8


Reference source for all entries: patent US7855292B2
